Assay: Particle characteristics of LNPs containing luciferase mRNA and novel ionizable lipids
Assay type: physicochemical
Details: Table 6; luciferase mRNA LNP 1.6:54.6:32.8:10.9
Experimental: The lipid solution contains 4 components: a PEG-conjugated lipid, an ionizable lipid, cholesterol, and a phospholipid (e.g., DSPC). Lipid stocks were prepared using the lipid identities and molar ratios as described, to achieve a total concentration of ˜7 mg/mL in 100% ethanol. […] Nucleic acid concentration was determined by the RiboGreen assay. Particle size and polydispersity were determined using a Malvern Nano Series Zetasizer. […]
parameter.measured: Final Product PDI

Illustrative cases are given below, each with its answer.
>>> recorded_value("CCCCCCCCCCN(C(=O)CCCN(C)C)C(CCCCCCCCC)CCCCCCC(F)(F)C(=O)OCCC(CCCCCC)CCCCCC (stereo not drawn) [Compound 16]")
0.10
>>> recorded_value("CCCCCCCCCCN(C(=O)CCCN(C)C)C(CCCCCCCCC)CCCCCCC(F)(F)C(=O)OC(CCCCC)CCCCC (stereo not drawn) [Compound 19]")
0.09
>>> recorded_value("CCCCCCCCCCC(CCCCCCCC(=O)OCC(CCCCCC)CCCCCCCC)N(CCCCCCCCC(=O)OCC(CCCCCC)CCCCCCCC)C(=O)CCCCN(C)C (stereo not drawn) [Compound 72]")
0.00
>>> recorded_value("CCCCCCCCCCN(C(=O)CCCN(C)C)C(CCCCCCCCC)CCCCCCC(F)(F)C(=O)OCC(CCCCCC)CCCCCCCC (stereo not drawn) [Compound 17]")
0.10
>>> recorded_value("CCCCCCCCCCC(CCCCCCCC(=O)OC(CCCCCC)CCCCCC)N(CCCCCCCCCC)C(=O)CCCN(C)C (stereo not drawn) [Compound 5]")
0.05

## Input Quote Final Product PDI reported for CCCCCCCCCCN(C(=O)CCCN(C)C)C(CCCCCCCCC)CCCCCCC(F)(F)C(=O)OCCC(CCCCCCC)CCCCCCC (stereo not drawn) [Compound 18] please.
## Output 0.07

## Input Quote Final Product PDI reported for CCCCCCCCCCON(C(=O)CCCN(C)C)C(CCCCCCCCCC)CCCCCCC(=O)OCCC(CCCCC)CCCCC (stereo not drawn) [Compound 43] please.
## Output 0.05

## Input Quote Final Product PDI reported for CCCCC/C=C\CCCC(CCC/C=C\CCCCC)C(CCC/C=C\CCCCC)OC(=O)CCCCN(C)C (stereo not drawn) [Compound 13-B43, reference compound] please.
## Output 0.07

## Input Quote Final Product PDI reported for CCCCCCCCCCC(CCCCCCCC(=O)OCCC(CCCCC)CCCCC)N(CCCCCCCCC(=O)OCCC(CCCCC)CCCCC)C(=O)CCCCN(C)C (stereo not drawn) [Compound 65] please.
## Output 0.01

====

experiment: Particle characteristics of LNPs containing luciferase mRNA and novel ionizable lipids; type: physicochemical; details: Table 3; luciferase mRNA LNP 1.6:54.6:32.8:10.9
parameter.measured: Final Product Z-avg (nm)
// return numeric value only (unit: nm, not printed)

Illustrative cases are given below, each with its answer.
>>> recorded_value("CCCCCCCCCCC(CCCCC(=O)OCc1cc(CCCCCC)cc(CCCCCC)c1)N(CCCN(C)C)C(=O)CCCCCCCCC (stereo not drawn) [Compound 60]")
73
>>> recorded_value("CCCCCCCCCCCCC(=O)N(CCCN(C)C)C(CCCCCCCCCC)CCCCC(=O)OCc1cc(CCCCCC)cc(CCCCCC)c1 (stereo not drawn) [Compound 61]")
76
>>> recorded_value("CCCCCCCCCCCCCOC(=O)CCCCC(CCCCCCCCCC)N(CCN(C)C)C(=O)CCCCCCC(=O)OCC(CCCC)CCCCCC (stereo not drawn) [Compound 24]")
72
>>> recorded_value("CCCCCCCCCCCCCOC(=O)CCCCC(CCCCCCCCCC)N(CCN(C)C)C(=O)CCCCC(=O)OCC(CCCC)CCCCCC (stereo not drawn) [Compound 23]")
69
>>> recorded_value("CCCCCCCCCCC(CCCCC(=O)OCc1cc(CCCCCC)cc(CCCCCC)c1)N(CCCN(C)C)C(=O)C(CCCCCC)CCCCCCCC (stereo not drawn) [Compound 62]")
67

## Input Quote Final Product Z-avg reported for CCCCCCCCCCN(C(=O)CCCN(C)C)C(CCCCCCCCC)CC(=O)OCC(CCCCCC)CCCCCCCC (stereo not drawn) [Compound 32] please.
## Output 85

## Input Quote Final Product Z-avg reported for CCCCC/C=C\CCCC(CCC/C=C\CCCCC)C(CCC/C=C\CCCCC)OC(=O)CCCCN(C)C (stereo not drawn) [Compound 13-B43, reference compound] please.
## Output 72

## Input Quote Final Product Z-avg reported for CCCCC/C=C\CCCC(CCC/C=C\CCCCC)=NNC(=O)CC(CCCCCCCCC)N(CCCN(C)C)C(=O)C(CCCCCC)CCCCCCCC (stereo not drawn) [Compound 57] please.
## Output 84
